- Test system: LXRa homodimer (NR concentration 270 nM)
- ASSAY OVERVIEW: PBM binding z-score (relative to random genomic background probes); higher = stronger binding; sequences stand for … in GC…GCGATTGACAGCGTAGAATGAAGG
Please respond with reported PBM binding z-score for every item in the list.
Numbers only.

Field: example entries. Status: answers known.
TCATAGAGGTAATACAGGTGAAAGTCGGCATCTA = -0.283
TCTGCTAGTTCAACGATGGTCAGCTAATCTGCTA = -0.555
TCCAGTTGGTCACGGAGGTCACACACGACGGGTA = 2.25
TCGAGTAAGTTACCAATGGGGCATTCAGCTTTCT = -0.53
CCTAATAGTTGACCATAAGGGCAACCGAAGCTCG = 0.29

Kindly give each listed record's PBM binding z-score.
1. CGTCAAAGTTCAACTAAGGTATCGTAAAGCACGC
2. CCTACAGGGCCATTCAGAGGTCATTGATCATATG
3. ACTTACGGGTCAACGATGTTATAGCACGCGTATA
4. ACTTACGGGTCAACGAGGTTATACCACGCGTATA
5. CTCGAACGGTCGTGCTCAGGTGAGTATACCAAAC
6. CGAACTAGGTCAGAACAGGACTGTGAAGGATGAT

RESULT:
4.37
6.45
0.405
1.14
-0.21
-0.197

QUERY: Which value of PBM binding z-score has been reported for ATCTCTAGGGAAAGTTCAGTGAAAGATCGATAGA in the records?
RESULT: 0.993

* * *

Please respond with reported PBM binding z-score for every item in the list.
- System: FXR:RXRa (NR concentration 270 nM, RXRa partner concentration 90 nM)
- ASSAY OVERVIEW: PBM binding z-score (relative to random genomic background probes); higher = stronger binding; sequences stand for … in GC…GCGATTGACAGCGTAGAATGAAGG
Give bare numbers.

Field: example entries. Status: answers known.
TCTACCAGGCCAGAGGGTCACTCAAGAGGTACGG = 1.36
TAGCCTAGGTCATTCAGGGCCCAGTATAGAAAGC = 4.66
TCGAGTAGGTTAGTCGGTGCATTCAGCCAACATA = -0.341
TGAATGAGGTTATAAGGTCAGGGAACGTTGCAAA = 5.12
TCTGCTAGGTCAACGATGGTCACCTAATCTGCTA = 3.57
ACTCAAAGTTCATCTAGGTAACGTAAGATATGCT = 6.73
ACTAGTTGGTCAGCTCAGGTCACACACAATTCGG = 1.73
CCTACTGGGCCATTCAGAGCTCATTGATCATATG = -0.592

Kindly give each listed record's PBM binding z-score.
1. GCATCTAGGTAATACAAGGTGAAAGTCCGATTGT
2. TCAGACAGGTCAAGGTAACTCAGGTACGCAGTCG
3. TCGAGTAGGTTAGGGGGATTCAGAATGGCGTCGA
4. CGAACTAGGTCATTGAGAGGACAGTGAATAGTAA

RESULT:
1.09
4.86
0.594
3.94

* * *

Please respond with reported PBM binding z-score for every item in the list.
- Tested on: VDR:RXRa (NR concentration 270 nM, RXRa partner concentration 90 nM)
- ASSAY OVERVIEW: PBM binding z-score (relative to random genomic background probes); higher = stronger binding; sequences stand for … in GC…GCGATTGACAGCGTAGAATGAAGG
Answers are plain numbers.

Field: example entries. Status: answers known.
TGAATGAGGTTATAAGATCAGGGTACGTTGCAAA = 1.79
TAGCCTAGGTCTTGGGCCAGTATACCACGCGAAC = -0.455
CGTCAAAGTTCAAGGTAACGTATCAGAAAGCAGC = 3.97
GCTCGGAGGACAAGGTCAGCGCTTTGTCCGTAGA = 1.88
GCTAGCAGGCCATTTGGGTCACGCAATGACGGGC = 1.61

Consider the record given below.
QUERY: Which value of PBM binding z-score has been reported for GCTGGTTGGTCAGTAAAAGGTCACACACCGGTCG in the records?
RESULT: 4.02

* * *

- System: PPARg:RXRa DBDmut IVT, anti-RXR (DBD mutation: RXRa K156A/R161A, NR concentration 270 nM, RXRa partner concentration 90 nM)
- ASSAY OVERVIEW: PBM binding z-score (relative to random genomic background probes); higher = stronger binding; sequences stand for … in GC…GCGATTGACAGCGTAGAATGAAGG
Please respond with reported PBM binding z-score for every item in the list.
Give bare numbers.

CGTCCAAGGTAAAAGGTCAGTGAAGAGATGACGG = 0.99
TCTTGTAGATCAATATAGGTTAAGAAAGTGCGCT = 2.95
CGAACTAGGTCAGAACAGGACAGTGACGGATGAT = 7.03

Kindly give each listed record's PBM binding z-score.
1. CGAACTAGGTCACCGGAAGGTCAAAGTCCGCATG
2. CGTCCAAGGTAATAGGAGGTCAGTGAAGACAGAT
3. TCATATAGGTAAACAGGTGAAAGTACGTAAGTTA

RESULT:
7.98
0.553
4.97

Kindly give each listed record's PBM binding z-score.
1. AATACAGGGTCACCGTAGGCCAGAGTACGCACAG
2. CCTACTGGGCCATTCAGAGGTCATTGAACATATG
3. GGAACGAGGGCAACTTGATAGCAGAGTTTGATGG
4. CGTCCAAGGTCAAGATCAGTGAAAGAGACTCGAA
5. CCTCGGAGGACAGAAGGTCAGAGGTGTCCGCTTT
6. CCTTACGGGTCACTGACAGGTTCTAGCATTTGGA

RESULT:
1. 3.34
2. 4.56
3. 4.45
4. 3.03
5. -0.101
6. 3.31

Kindly give each listed record's PBM binding z-score.
1. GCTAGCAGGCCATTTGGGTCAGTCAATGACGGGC
2. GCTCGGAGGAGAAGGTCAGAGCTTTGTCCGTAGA
3. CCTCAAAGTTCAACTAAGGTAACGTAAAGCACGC

RESULT:
[1.4, -0.348, 0.946]

* * *

- Tested on: PPARg:RXRa (NR concentration 180 nM, RXRa partner concentration 90 nM)
- ASSAY OVERVIEW: PBM binding z-score (relative to random genomic background probes); higher = stronger binding; sequences stand for … in GC…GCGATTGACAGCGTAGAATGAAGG
Mark Fulfilled for reported PBM binding z-score of 1 or greater; mark Not fulfilled for anything smaller.

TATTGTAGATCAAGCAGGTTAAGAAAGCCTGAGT = Not fulfilled
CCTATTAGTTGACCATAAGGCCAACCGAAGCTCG = Not fulfilled
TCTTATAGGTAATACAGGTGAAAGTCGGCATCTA = Fulfilled
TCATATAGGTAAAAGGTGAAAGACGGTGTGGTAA = Fulfilled
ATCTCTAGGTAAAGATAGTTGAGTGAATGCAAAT = Not fulfilled

QUERY: Exam item: decide whether the reported PBM binding z-score for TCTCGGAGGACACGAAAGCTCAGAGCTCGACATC is at least 1.
RESULT: Not fulfilled

QUERY: Follow-up item: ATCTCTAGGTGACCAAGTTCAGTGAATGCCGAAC
RESULT: Fulfilled

QUERY: Follow-up item: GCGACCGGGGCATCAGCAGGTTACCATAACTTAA
RESULT: Not fulfilled

* * *

- Test system: VDR:RXRa (NR concentration 270 nM, RXRa partner concentration 90 nM)
- ASSAY OVERVIEW: PBM binding z-score (relative to random genomic background probes); higher = stronger binding; sequences stand for … in GC…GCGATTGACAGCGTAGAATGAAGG
Mark 1 for reported PBM binding z-score of 1 or greater; mark 0 for anything smaller.

The examples below pair each entry with its known result.
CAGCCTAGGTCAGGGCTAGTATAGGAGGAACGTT = 0
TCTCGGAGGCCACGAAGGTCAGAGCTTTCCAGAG = 1
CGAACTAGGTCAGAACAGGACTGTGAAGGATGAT = 0
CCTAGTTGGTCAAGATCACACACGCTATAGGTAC = 0
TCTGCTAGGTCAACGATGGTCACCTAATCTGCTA = 1

QUERY: Exam item: decide whether the reported PBM binding z-score for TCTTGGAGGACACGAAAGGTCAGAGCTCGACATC is at least 1.
RESULT: 1

QUERY: Follow-up item: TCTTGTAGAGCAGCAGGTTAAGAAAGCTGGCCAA
RESULT: 0

QUERY: Follow-up item: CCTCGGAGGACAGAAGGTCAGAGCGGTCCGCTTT
RESULT: 1

QUERY: Follow-up item: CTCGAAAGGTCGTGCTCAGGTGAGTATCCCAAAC
RESULT: 1

QUERY: Follow-up item: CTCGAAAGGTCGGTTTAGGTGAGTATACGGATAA
RESULT: 1

QUERY: Follow-up item: CGAACTAGGTCAGAACAGGACGGTGAAGGATGAT
RESULT: 0

QUERY: Follow-up item: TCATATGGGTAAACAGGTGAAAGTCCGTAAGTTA
RESULT: 0

QUERY: Follow-up item: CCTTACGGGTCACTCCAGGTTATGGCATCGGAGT
RESULT: 1

QUERY: Follow-up item: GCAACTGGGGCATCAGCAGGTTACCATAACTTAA
RESULT: 0

QUERY: Follow-up item: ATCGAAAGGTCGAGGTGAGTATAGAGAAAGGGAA
RESULT: 1

QUERY: Follow-up item: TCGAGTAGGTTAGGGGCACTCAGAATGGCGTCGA
RESULT: 0

QUERY: Follow-up item: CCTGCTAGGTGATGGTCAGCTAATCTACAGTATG
RESULT: 0

QUERY: Follow-up item: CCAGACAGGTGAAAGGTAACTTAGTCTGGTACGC
RESULT: 0

QUERY: Follow-up item: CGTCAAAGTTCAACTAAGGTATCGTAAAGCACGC
RESULT: 1

QUERY: Follow-up item: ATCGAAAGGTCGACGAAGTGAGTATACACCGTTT
RESULT: 1

QUERY: Follow-up item: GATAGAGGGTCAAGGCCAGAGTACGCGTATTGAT
RESULT: 1

QUERY: Follow-up item: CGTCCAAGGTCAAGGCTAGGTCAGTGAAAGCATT
RESULT: 1

QUERY: Follow-up item: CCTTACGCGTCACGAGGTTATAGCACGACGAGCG
RESULT: 0

QUERY: Follow-up item: ATCTCTAGGTAAGATTCAGTTCAGTGAAGAACGC
RESULT: 0

QUERY: Follow-up item: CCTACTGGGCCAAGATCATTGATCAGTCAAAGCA
RESULT: 0

QUERY: Follow-up item: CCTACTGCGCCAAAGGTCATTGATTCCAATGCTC
RESULT: 1

QUERY: Follow-up item: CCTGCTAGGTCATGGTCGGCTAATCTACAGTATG
RESULT: 1
